biological target: T1, hIL-17A (human, UniProt Q16552 24-155); assay: ELISA on captured hIL-17A
T1 construct: Bought protein
T1 sequence (Q16552 24-155 limits assumed): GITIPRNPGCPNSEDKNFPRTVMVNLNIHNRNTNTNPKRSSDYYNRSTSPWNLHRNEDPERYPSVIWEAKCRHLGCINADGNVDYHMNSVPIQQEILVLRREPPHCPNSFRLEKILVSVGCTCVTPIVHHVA
Catalogue of binders with associated IL-17A binding relative to the WT
outcome measure: IL-17A binding relative to the WT (%)

1) V3 W244G (Fc fusion, Expressed in mammalian cells; not shown: human IgG1 engineered Fc from the mammalian expression vector) LRLLDHRAPVCSQPGLNCTVKNSTCLDDSWIHPRNLTPSSPKDLQIQLHFAHTQQGDLFPVAHIEWTLQTDASILYLEGAELSVLQLNTNERLCVRFEFLSKLRHHHKRWRFTFSHFVVDPGQEYEVTVHHLPKPIPDGDPNHQSKNFLVPDCEDARMKVTTPCMSSGSLWDPNITVETLEAHQLRVSFTLWNESTHYQILLTSFPHMENHSCFEHMHHIPAPRPEEFHQRSNVTLTLRNLKGCCRHQVQIQPFFSSCLNDCLRHSVTVSCPEMPDTPEPIPDYMPLW = 65
2) hIL17RA-ECD variant V10 (Fc fusion, also called V10M; not shown: human IgG1 engineered Fc (reduced ADCC/CDC) from the expression vector) LRLLDHRAPVCSQPGLNCTVKNSTCLDDSWIHPRNLTPSSPKDLQIQLHFAHTQQGDLVPVAHIEWTLQTDASILYLEGAELSVLQLNTNERLCVRFEFLSKLRHHHKRWRFTFSHFVVDPGQEYEVTVHHLPKPIPDGDPNHQSKNFLVPDCEHPRMKVTTPCMSSGSLWDPNITVETLEAHQLRVSFTLWNESTHYQILLTSFPHMENHSCFEHMHHIPAPRPEEFHQRSNVTLTLRNLKGCCRHQVQIQPFFSSCLNDCLRHSATVSCPEMPDTPEPIPDYMPLW = 100
3) V10 V60F (Fc fusion, Expressed in mammalian cells; not shown: human IgG1 engineered Fc from the mammalian expression vector) LRLLDHRAPVCSQPGLNCTVKNSTCLDDSWIHPRNLTPSSPKDLQIQLHFAHTQQGDLFPVAHIEWTLQTDASILYLEGAELSVLQLNTNERLCVRFEFLSKLRHHHKRWRFTFSHFVVDPGQEYEVTVHHLPKPIPDGDPNHQSKNFLVPDCEHPRMKVTTPCMSSGSLWDPNITVETLEAHQLRVSFTLWNESTHYQILLTSFPHMENHSCFEHMHHIPAPRPEEFHQRSNVTLTLRNLKGCCRHQVQIQPFFSSCLNDCLRHSATVSCPEMPDTPEPIPDYMPLW = 10
4) V3 P10L (Fc fusion, Expressed in mammalian cells; not shown: human IgG1 engineered Fc from the mammalian expression vector) LRLLDHRALVCSQPGLNCTVKNSTCLDDSWIHPRNLTPSSPKDLQIQLHFAHTQQGDLFPVAHIEWTLQTDASILYLEGAELSVLQLNTNERLCVRFEFLSKLRHHHKRWRFTFSHFVVDPGQEYEVTVHHLPKPIPDGDPNHQSKNFLVPDCEDARMKVTTPCMSSGSLWDPNITVETLEAHQLRVSFTLWNESTHYQILLTSFPHMENHSCFEHMHHIPAPRPEEFHQRSNVTLTLRNLKWCCRHQVQIQPFFSSCLNDCLRHSVTVSCPEMPDTPEPIPDYMPLW = 85
